assay: in vitro; settings: African green monkey
Known CC50 of a selection of compounds
QUANTITY: CC50

compound="COc1cc(NC(C(=O)N2CCc3sc(C(F)(F)F)cc32)c2ccc(Cl)cc2)cc(OCCCC(=O)O)c1 (racemic) [Compound 10]" quantity=CC50 result="19 µM"
compound="COc1cc(NC(C(=O)N2CCc3c(C)cc(C(F)(F)F)cc32)c2ccc(Cl)cc2)cc(OCCCC(=O)O)c1 (single isomer, unassigned) [Compound 2A]" quantity=CC50 result="12 µM"
compound="COc1cc(NC(C(=O)N2CCc3sc(C(F)(F)F)cc32)c2ccc(Cl)cc2)cc(OCCCC(=O)O)c1 (single isomer, unassigned) [Compound 10A]" quantity=CC50 result="14 µM"
compound="COc1cc(NC(C(=O)N2CCc3c(C)cc(OC(F)(F)F)cc32)c2ccc(Cl)cc2)cc(OCCCC(=O)O)c1 (racemic) [Compound 4]" quantity=CC50 result="12 µM"
compound="COc1cc(NC(C(=O)N2CCc3cc(F)c(C(F)(F)F)cc32)c2ccc(Cl)cc2)cc(OCCCC(=O)O)c1 (single isomer, unassigned) [Compound 3B]" quantity=CC50 result="13 µM"
compound="COc1cc(NC(C(=O)N2CCc3cc(F)c(OC(F)(F)F)cc32)c2ccc(Cl)cc2)cc(OCCCC(=O)O)c1 (racemic) [Compound 5]" quantity=CC50 result="10 µM"
compound="COc1cc(NC(C(=O)N2CCc3cc(F)c(C(F)(F)F)cc32)c2ccc(Cl)cc2)cc(OCCCC(=O)O)c1 (racemic) [Compound 3]" quantity=CC50 result="13 µM"
compound="COc1cc(NC(C(=O)N2CCc3c(C)cc(C(F)(F)F)cc32)c2ccc(Cl)cc2)cc(OCCCC(=O)O)c1 (racemic) [Compound 2]" quantity=CC50 result="12 µM"
compound="COc1cc(NC(C(=O)N2CCc3ccc(SC(F)(F)F)cc32)c2ccc(Cl)cc2)cc(OCCCC(=O)O)c1 (racemic)" quantity=CC50 result="13 µM"
compound="COc1cc(NC(C(=O)N2CCc3nc(OC)c(C(F)(F)F)cc32)c2ccc(Cl)cc2)cc(OCCCC(=O)O)c1 (racemic)" quantity=CC50 result="12 µM"
compound="[2H]C(Nc1cc(OC)cc(OCCCC(=O)O)c1)(C(=O)N1CCc2ccc(OC(F)(F)F)cc21)c1ccc(Cl)cc1 (single isomer, unassigned)" quantity=CC50 result="12 µM"
compound="COc1cc(NC(C(=O)N2CCc3cc(F)c(OC(F)(F)F)cc32)c2ccc(Cl)cc2)cc(OCCCC(=O)O)c1 (single isomer, unassigned) [Compound 5A]" quantity=CC50 result="10 µM"
compound="COc1cc(NC(C(=O)N2CCc3ccc(S(F)(F)(F)(F)F)cc32)c2ccc(Cl)cc2)cc(OCCCC(=O)O)c1 (racemic) [Compound 1]" quantity=CC50 result="13 µM"
compound="COc1cc(NC(C(=O)N2CCc3ccc(OC(F)(F)F)cc32)c2ccc(F)cc2OC)cc(OCCCC(=O)O)c1 (racemic) [Compound 6]" quantity=CC50 result="12 µM"
compound="COc1cc(NC(C(=O)N2CCc3c(C)cc(OC(F)(F)F)cc32)c2ccc(Cl)cc2)cc(OCCCC(=O)O)c1 (single isomer, unassigned) [Compound 4B]" quantity=CC50 result="13 µM"
compound="COc1cc(NC(C(=O)N2CCc3ccc(OC(F)(F)F)cc32)c2ccc(F)cc2OC)cc(OCCCC(=O)O)c1 (single isomer, unassigned) [Compound 6A]" quantity=CC50 result="11 µM"
compound="COc1cc(NC(C(=O)N2CCc3ccc(OC(F)(F)F)cc32)c2ccc(Cl)cc2OCCO)cc(OCCCC(=O)O)c1 (racemic)" quantity=CC50 result="13 µM"
compound="COc1cc(NC(C(=O)N2CCc3ccc(S(F)(F)(F)(F)F)cc32)c2ccc(Cl)cc2)cc(OCCCC(=O)O)c1 (single isomer, unassigned) [Compound 1A]" quantity=CC50 result="12 µM"
